Test: in vivo
Conditions: rat
experimental.endpoint: LD50
// return the numeric value with its unit appended

O=C(Oc1ccc(C23CC4CC(CC(C4)C2)C3)cc1)c1cccnc1 [Example 2, p-(1-adamantylphenyl)-nicotinate] = 3200 mg/kg
CC(C)(C)c1cc(C2CCCCC2)ccc1OC(=O)c1cccnc1 [Example 8, 2-t-butyl-4-cyclohexylphenyl nicotinate] = 1700 mg/kg
O=C(Oc1ccc(C2CCCCC2)cc1)c1cccnc1 [Example 1, p-cyclohexylphenyl nicotinate] = 2200 mg/kg
CCOC(=O)C(C)(C)Oc1ccc(Cl)cc1 [clofibrate, reference compound] = 1500 mg/kg
Cl.O=C(Oc1ccccc1C1CCCCC1)c1cccnc1 = 2050 mg/kg

GET /values?readout=LD50&item= O=C(O)c1cccnc1 [Nicotinic acid, nicotinic acid, reference compound]
4000 mg/kg

====

Assay: Triglyceride reduction in rats on high-fat diet
Assay type: in vivo, female Wistar rats
Conditions: Rattus norvegicus; 100 mg/kg; high fat diet 3 weeks; blood 18 hours after last dose; read-out: Triglyc. Red. in %
Assign rule met whenever inhibition in vivo at 100 mg/kg does not fall below 20%; assign rule not met whenever it does.

The examples below pair each entry with its known result.
CC(C)(Oc1ccc(Cl)cc1)C(=O)Oc1ccc(C(=O)CC23CC4CC(CC(C4)C2)C3)cc1 = rule met
CC(C)(c1ccccc1)c1ccc(OC(=O)c2cccnc2)cc1 [Example 9, p-cumylphenyl nicotinate] = rule not met
CCOC(=O)C(C)(C)Oc1ccc(Cl)cc1 [clofibrate, reference compound] = rule not met

State whether the measured inhibition in vivo at 100 mg/kg reaches 20%, counting equality as reaching it, for O=C(Oc1cccc2c1CCCC2)c1cccnc1 [Example 7, 5,6,7,8-Tetrahydro-1-naphthyl-nicotinate]
rule not met

Threshold query (inhibition in vivo at 100 mg/kg >= 20%) on O=C(Oc1ccc(C23CC4CC(CC(C4)C2)C3)cc1)c1cccnc1 [Example 2, p-(1-adamantylphenyl)-nicotinate]
rule met

Does inhibition in vivo at 100 mg/kg meet or surpass 20% for O=C(Oc1ccc(C2CCCCC2)cc1)c1cccnc1 [Example 1, p-cyclohexylphenyl nicotinate] ?
rule not met

====

Test: in vivo
Conditions: rat
experimental.endpoint: selectivity ratio
// no unit string in output, number only

Study these solved cases before continuing.
CC(C)(C)c1cc(C2CCCCC2)ccc1OC(=O)c1cccnc1 [Example 8, 2-t-butyl-4-cyclohexylphenyl nicotinate] = 56
Cl.O=C(Oc1ccccc1C1CCCCC1)c1cccnc1 [Example 6, hydrochloride] = 93
O=C(Oc1ccc(C2CCCCC2)cc1)c1cccnc1 [Example 1, p-cyclohexylphenyl nicotinate] = 44
O=C(Oc1ccc(C23CC4CC(CC(C4)C2)C3)cc1)c1cccnc1 [Example 2, p-(1-adamantylphenyl)-nicotinate] = 47

What measured selectivity ratio goes with O=C(O)c1cccnc1 [Nicotinic acid, nicotinic acid, reference compound] ?
8

====

Measured inhibition in vivo at 100 mg/kg, listed per entry for reference.
Experiment: Cholesterol reduction in rats on high-fat diet
Type: in vivo, female Wistar rats
Conditions: Rattus norvegicus; 100 mg/kg; high fat diet 3 weeks; blood 18 hours after last dose; read-out: Chol. Red. in %
All answers are understood in %, so give the number only.

// worked examples, inhibition in vivo at 100 mg/kg included
O=C(Oc1ccc(C(=O)c2ccc(Cl)cc2)cc1)c1cccnc1 [Example 10, p-chlorobenzoylphenyl nicotinate] = 29
O=C(Oc1ccc(C2CCCCC2)cc1)c1cccnc1 [Example 1, p-cyclohexylphenyl nicotinate] = 45
CC(C)(c1ccccc1)c1ccc(OC(=O)c2cccnc2)cc1 [Example 9, p-cumylphenyl nicotinate] = 24
O=C(Oc1cccc2c1CCCC2)c1cccnc1 [Example 7, 5,6,7,8-Tetrahydro-1-naphthyl-nicotinate] = 22
CC(C)(Oc1ccc(Cl)cc1)C(=O)Oc1ccc(C(=O)CC23CC4CC(CC(C4)C2)C3)cc1 [Example 3] = 27

Now let's try a different one.
I have this compound here, O=C(Oc1ccc(C23CC4CC(CC(C4)C2)C3)cc1)c1cccnc1 [Example 2, p-(1-adamantylphenyl)-nicotinate] , and I need its recorded inhibition in vivo at 100 mg/kg.
28

The reported numbers originate from patent US4412998A.
